Ref: patent US20100055169A1

- procedure.summary: RiboGreen assay of siRNA encapsulation efficiency, in vitro formulations of Lipid-Based Particles
- Assay type: physicochemical
- assay.conditions: in vitro formulation b: Cationic lipid/PEG-cholesterol/DSPC/Chol 45/10/15/30 wt %, lipid:siRNA 25:1
readout.type: % Encapsulation Efficiency (%)

CCCCC/C=C\C/C=C\CCCCCCCCOC[C@H](CCNC(=O)CCN(CC)CC)OCCCCCCCC/C=C\C/C=C\CCCCC    96.5
CCCCC/C=C\C/C=C\CCCCCCCCOCC(CCN1C(C)CCC1C)OCCCCCCCC/C=C\C/C=C\CCCCC (stereo not drawn)    99
CCCCCCCC/C=C/CCCCCCCCOCC(CCN1CCCC1)OCCCCCCCC/C=C/CCCCCCCC (stereo not drawn)    97
CCCCCCCCCCCCCCCCCCOCC(CCN1CCCC1)OCCCCCCCCCCCCCCCCCC (stereo not drawn)    98.5
CCCCC/C=C/C/C=C/CCCCCCCCOCC(CCN1CCCC1)OCCCCCCCC/C=C/C/C=C/CCCCC (stereo not drawn)    99
CCCCC/C=C\C/C=C\CCCCCCCCOCC(CCOCCN1CC1)OCCCCCCCC/C=C\C/C=C\CCCCC (stereo not drawn)    97
CCCCC/C=C\C/C=C\CCCCCCCCOCC(CCN1CCCC1C)OCCCCCCCC/C=C\C/C=C\CCCCC (stereo not drawn)    99
CCCCC/C=C\C/C=C\CCCCCCCCOCC(CCN(C)C)OCCCCCCCC/C=C\C/C=C\CCCCC (stereo not drawn)    97.5
CCCCC/C=C\C/C=C\CCCCCCCCOCC(CCN(C)CCCN(C)C)OCCCCCCCC/C=C\C/C=C\CCCCC (stereo not drawn)    99
CCCCC/C=C\C/C=C\CCCCCCCCOCC(CCNCCCN(C)C)OCCCCCCCC/C=C\C/C=C\CCCCC (stereo not drawn)    99
CCCCC/C=C\C/C=C\CCCCCCCCOC[C@H](CCOC(=O)NCCCN1CCCC1)OCCCCCCCC/C=C\C/C=C\CCCCC    99
CCCCC/C=C\C/C=C\CCCCCCCCOCC(CCN(C)CCOC)OCCCCCCCC/C=C\C/C=C\CCCCC (stereo not drawn)    96.9
CCCCC/C=C\C/C=C\CCCCCCCCOCC(CCOCCC1CCCN1C)OCCCCCCCC/C=C\C/C=C\CCCCC (stereo not drawn)    99.9
CCCCCC/C=C/CCCCCCCCOCC(CCN1CCCC1)OCCCCCCCC/C=C/CCCCCC (stereo not drawn)    99
CCCCC/C=C\C/C=C\CCCCCCCCOCC(CCNCCCN1CCCC1)OCCCCCCCC/C=C\C/C=C\CCCCC (stereo not drawn)    99
